# target.entity: T1, cynomolgus monkey DLL4 extracellular domain (cynomolgus monkey)
# T1 construct: extracellular domain; also called cynoDLL4 ECD; Cyno DLL4
# experimental.protocol: binding ELISA
# Protocol: Plates were then washed 3 times. 100 μl/well of recombinant rat/human chimeric or recombinant human anti-DLL4 antibodies were then added to the plate (0.00164-27 nM, 4-fold serial dilution in ELISA buffer=PBST, 10% Superblock (Pierce #37515)) for 1 hour at 25° C. with shaking and then washed again 3 times. […] The reaction was stopped after 8 minutes at 25° C. with 100 μl/well 1N HCl and the absorbance was read at 450 nm. Data were analyzed using Graphpad Prism software, and EC50 values were reported. […]
pEC50: −log10 of the molar value.
# pEC50 per entry
experimental.readout: pEC50

1) h1A11.10 (antibody, V domains shown, humanized IgG; also called VH.1b/VL.1a 1A11) VH: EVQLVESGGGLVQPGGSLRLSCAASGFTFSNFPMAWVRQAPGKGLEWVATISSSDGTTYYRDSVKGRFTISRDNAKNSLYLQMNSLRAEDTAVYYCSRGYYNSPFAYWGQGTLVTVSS VL: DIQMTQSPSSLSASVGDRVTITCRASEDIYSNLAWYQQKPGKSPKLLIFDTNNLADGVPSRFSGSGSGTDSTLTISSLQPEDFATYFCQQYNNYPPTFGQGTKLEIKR	9.82
2) h1A11.14 (antibody, V domains shown, humanized IgG; also called VH.2a/VL.1a 1A11) VH: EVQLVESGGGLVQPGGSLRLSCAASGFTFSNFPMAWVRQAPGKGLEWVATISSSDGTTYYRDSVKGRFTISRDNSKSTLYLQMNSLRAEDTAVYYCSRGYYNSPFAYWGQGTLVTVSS VL: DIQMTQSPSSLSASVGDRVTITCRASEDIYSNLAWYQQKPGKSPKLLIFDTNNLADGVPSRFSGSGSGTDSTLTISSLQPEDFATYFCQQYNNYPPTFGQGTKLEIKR	9.85
3) h1A11.5 (antibody, V domains shown, humanized IgG; also called VH.1a/VL.1 1A11) VH: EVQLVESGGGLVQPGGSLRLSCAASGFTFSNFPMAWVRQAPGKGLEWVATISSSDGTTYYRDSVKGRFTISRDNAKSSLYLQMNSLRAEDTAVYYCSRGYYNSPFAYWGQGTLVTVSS VL: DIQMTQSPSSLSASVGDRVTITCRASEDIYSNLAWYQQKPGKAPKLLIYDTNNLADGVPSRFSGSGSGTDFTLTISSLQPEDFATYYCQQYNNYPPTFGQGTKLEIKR	9.80
4) h1A11.3 (antibody, V domains shown, humanized IgG; also called VH.1/VL.1b 1A11) VH: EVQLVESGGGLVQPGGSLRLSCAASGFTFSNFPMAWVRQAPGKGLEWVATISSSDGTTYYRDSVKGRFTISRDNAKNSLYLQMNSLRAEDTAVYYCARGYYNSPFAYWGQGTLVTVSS VL: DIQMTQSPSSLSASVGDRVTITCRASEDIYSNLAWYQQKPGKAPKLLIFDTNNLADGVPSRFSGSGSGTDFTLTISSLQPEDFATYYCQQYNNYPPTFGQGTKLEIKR	9.80
5) h1A11.11 (antibody, V domains shown, humanized IgG; also called VH.1b/VL.1b 1A11) VH: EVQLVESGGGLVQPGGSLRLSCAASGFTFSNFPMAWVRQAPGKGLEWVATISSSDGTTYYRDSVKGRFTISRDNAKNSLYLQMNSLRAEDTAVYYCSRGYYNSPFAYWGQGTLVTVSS VL: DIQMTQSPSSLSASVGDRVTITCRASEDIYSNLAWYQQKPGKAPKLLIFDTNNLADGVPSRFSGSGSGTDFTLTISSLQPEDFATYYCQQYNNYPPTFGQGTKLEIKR	9.82
